# Tested System: T1, human myostatin (mature, recombinant; R&D Systems) (human, UniProt O14793 267-375)
# T1 sequence: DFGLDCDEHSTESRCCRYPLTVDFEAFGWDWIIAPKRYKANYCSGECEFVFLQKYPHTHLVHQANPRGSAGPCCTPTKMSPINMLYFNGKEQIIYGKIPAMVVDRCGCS
# Assay Remarks: cell-based or functional assay
Result Type: pSmad2 IC50, 12-point (nM)
Write the number in nM without appending the unit.

Please review the entries below; each comes with its answer.
binder="2525_D05 (designed binder) MGVSDVPRDLEVVAATPTSLLISWSLPYAGHLNYYRITYGETGGNSPVQEFTVPGRGVTATISGLKPGVDYTITVYAVTLTKSQLIHYMPISINYRTEIDKPSQHHHHHH" readout_number=0.2
binder="2522_C09 (designed binder) MGVSDVPRDLEVVAATPTSLLISWEVPRGLARYYRITYGETGGNSPVQEFTVLGRGSTATISGLKPGVDYTITVYAVTVYRDGPLLLAPISINYRTEIDKPSQHHHHHH" readout_number=0.13
binder="2524_C11 (designed binder) MGVSDVPRDLEVVAATPTSLLISWTLPHAGLAHYYRITYGETGGNSPVQEFTVPGRGVTATISGLKPGVDYTITVYAVTLTNSEIILYKPISINYRTEIDKPSQHHHHHH" readout_number=0.14

query: Recall and state the measured pSmad2 IC50, 12-point for 2525_D02 (designed binder) MGVSDVPRDLEVVAATPTSLLISWTLPHAGRAHYYRITYGETGGNSPVQEFTVPGRGVTATISGLKPGVDYTITVYAVTVTTTSVILYKPISINYRTEIDKPSQHHHHHH .
result: 0.36

query: Recall and state the measured pSmad2 IC50, 12-point for 2062_G02 (designed binder, also called ATI-1134) MGVSDVPRDLEVVAATPTSLLISWVSPRGRARYYRITYGETGGNSPVQEFTVPGRGSTATISGLKPGVDYTITVYAVTIYRDGMSHHDPISINYRTEIDKPSQHHHHHH .
result: 59.1

query: Recall and state the measured pSmad2 IC50, 12-point for 2524_E10 (designed binder) MGVSDVPRDLEVVAATPTSLLISWSLPFAGHLNYYRITYGETGGNSPVQEFTVPGRGVTATISGLKPGVDYTITVYAVTLTRSKIIHYMPISINYRTEIDKPSQHHHHHH .
result: 0.13

query: Recall and state the measured pSmad2 IC50, 12-point for 2524_D09 (designed binder) MGVSDVPRDLEVVAATPTSLLISWYLPYPAHMNYYRITYGETGGNSPVQEFTVPGRGLTATISGLKPGVDYTITVYAVTLTKSQILHHRPISINYRTEIDKPSQHHHHHH .
result: 0.11

query: Recall and state the measured pSmad2 IC50, 12-point for 2524_H05 (designed binder) MGVSDVPRDLEVVAATPTSLLISWSLPYSGLANYYRITYGETGGNSPVQEFTVPGRGVTATISGLKPGVDYTITVYAVTLTHSNIIRYVPISINYRTEIDKPSQHHHHHH .
result: 0.13
